Assay text: Biodistribution of DHA after periorbital skin (NIODP) application to one eye
Assay type: in vivo, Cynomolgus monkeys
Experimental conditions: cynomolgus monkey, plasma, topical; 24 h post dose; 6755.1 μg to OS via NIODP; read-out: DHA in plasma

[
  {
    "Compound": "CC/C=C\\C/C=C\\C/C=C\\C/C=C\\C/C=C\\C/C=C\\CCC(=O)O [DHA, docosahexaenoic acid]",
    "Endpoint unit": "ng/mL",
    "concentration at 24 h": 1200
  }
]

* * *

Assay text: DHA distribution after single periorbital skin administration
Assay type: in vivo, Bama minipigs
Experimental conditions: Bama, minipig, medial rectus muscle, right, topical, 6092 μg/eye; 3 h; DHA 6092 μg to periorbital skin of left eye; read-out: Drug Concentration in Tissue: medial rectus muscle-right

[
  {
    "Compound smiles": "CC/C=C\\C/C=C\\C/C=C\\C/C=C\\C/C=C\\C/C=C\\CCC(=O)O",
    "concentration at 3 h (ng/g)": 1520
  }
]

* * *

Assay text: DHA distribution after single periorbital skin administration
Type: in vivo, Bama minipigs
Experimental conditions: Bama, minipig, superior rectus muscle, right, topical, 6092 μg/eye; 3 h; DHA 6092 μg to periorbital skin of left eye; read-out: Drug Concentration in Tissue: superior rectus muscle-right
Reported endpoint: concentration at 3 h (ng/g)

[
  {
    "Compound": "CC/C=C\\C/C=C\\C/C=C\\C/C=C\\C/C=C\\C/C=C\\CCC(=O)O [DHA, docosahexaenoic acid]",
    "Measured": 0
  }
]

* * *

Assay text: DHA distribution after single periorbital skin administration
Type: in vivo, Bama minipigs
Experimental conditions: Bama, minipig, lateral rectus muscle, topical, 6092 μg/eye; 3 h; DHA 6092 μg to periorbital skin of left eye; read-out: Drug Concentration in Tissue: lateral rectus muscle-left

[
  {
    "Compound smiles": "CC/C=C\\C/C=C\\C/C=C\\C/C=C\\C/C=C\\C/C=C\\CCC(=O)O",
    "Endpoint unit": "ng/g",
    "concentration at 3 h": 8100
  }
]

* * *

Assay text: Biodistribution of DHA after periorbital skin (NIODP) application to one eye
Type: in vivo, Cynomolgus monkeys
Experimental conditions: cynomolgus monkey, retina / plasma; baseline (before dosing); read-out: Baseline retina/plasma ratio of DHA
Reported endpoint: Kp

[
  {
    "Compound": "CC/C=C\\C/C=C\\C/C=C\\C/C=C\\C/C=C\\C/C=C\\CCC(=O)O [DHA, docosahexaenoic acid]",
    "Measured": 7
  }
]
